Assay: Pharmacokinetic evaluation in rats
Format: in vivo
Conditions: male, Sprague-Dawley, rat, plasma, po, 3 mg/kg, 3 mg/kg by gavage, group G1, Mean of 4 rats, read-out: AUCINF_obs
property: AUC(0-inf) (ng·h/mL)
Unit ng·h/mL implied. Number only.

These solved cases illustrate the format of a correct answer.
N#CCNC(=O)c1ccc(-c2ccnc(Nc3ccc(N4CCOCC4)cc3)n2)cc1 [example 9, reference compound]; 1650
[2H]C([2H])(C#N)NC(=O)c1ccc(-c2ccnc(Nc3ccc(N4CCOCC4)cc3)n2)cc1; 2120

// switching to the query compound
Sure, the documented AUC(0-inf) for `[2H]C([2H])(C#N)NC(=O)c1ccc(-c2ccnc(Nc3ccc(N4CC([2H])([2H])OC([2H])([2H])C4)cc3)n2)cc1` is 1940
